Where do these numbers come from? They come from patent US4593104A.

Measured % damage, listed per entry.
- System: Stell. med.
- experiment: preemergence treatment in the greenhouse, % damage
- Format: in vivo
- experimental parameters: 1.0 kg/ha
Just the number please, in %, no unit attached.

Example entries and their recorded answers appear below.
compound | % damage [%]
Cc1ccc(C)c(N(Cn2cncn2)C(=O)CCl)c1C | 80
CCc1cccc(CC)c1N(COC)C(=O)CCl [prior art, reference compound] | 70

Sample Cc1cc(C)n(CN(C(=O)CCl)c2c(C)ccc(C)c2C)n1 ; % damage observed: 100

Sample Cc1ccc(C)c(N(Cn2cccn2)C(=O)CCl)c1C ; % damage observed: 100

----------
- Test system: Cyp. diff.
- experiment: preemergence treatment in the greenhouse, % damage
- Assay type: in vivo
- experimental parameters: 2.0 kg/ha
Measured % damage, listed per entry.
Just the number please, in %, no unit attached.

Example entries and their recorded answers appear below.
compound | readout units | % damage
Cc1cccc(C(C)C)c1N(Cn1cccn1)C(=O)CCl [Compound 9] | % | 100
CCc1cccc(CC)c1N(COC)C(=O)CCl [bekannt, reference compound] | % | 100
Cc1ccc(C)c(N(Cn2nc(C)cc2C)C(=O)CCl)c1 [Compound 52] | % | 100
CCc1cccc(CC)c1N(Cn1nc(C)nc1C)C(=O)CCl [Compound 162] | % | 100
CC(C)c1cccc(C(C)C)c1N(Cn1cccn1)C(=O)CCl [Compound 11] | % | 100
Cc1cccc(N(Cn2cncn2)C(=O)CCl)c1C [Compound 139] | % | 90

Sample Cc1cc(C)n(CN(C(=O)CCl)c2c(C(C)C)cccc2C(C)C)n1 [Compound 44] ; % damage observed: 100

Sample Cc1cccc(N(Cn2cccn2)C(=O)CCl)c1C [Compound 17] ; % damage observed: 100

----------
Measured % damage, listed per entry.
- Test system: Cyp. diff.
- experiment: preemergence treatment in the greenhouse, % damage
- Type: in vivo
- experimental parameters: 0.5 kg/ha
Just the number please, in %, no unit attached.

compound | % damage, %
Cc1ccc(C)c(N(Cn2cccn2)C(=O)CCl)c1C | 100
Cc1cc(C)n(CN(C(=O)CCl)c2c(C)ccc(C)c2C)n1 | 100
CCc1cccc(CC)c1N(COC)C(=O)CCl [bekannt, reference compound] | 70
COc1cc(C)n(CN(C(=O)CCl)c2c(C)cccc2C)n1 | 100
Cc1ccc(C)c(N(Cn2cncn2)C(=O)CCl)c1C | 90
CCc1cccc(CC)c1N(Cn1nc(C)cc1C)C(=O)CCl | 100

The record that follows has no % damage shown yet.
Sample CCc1cccc(CC)c1N(COC)C(=O)CCl [prior art, reference compound] ; % damage observed: 100

----------
- Tested on: Alopec. myosur.
- experiment: preemergence treatment in the greenhouse, % damage
- Type: in vivo
- experimental parameters: 2.0 kg/ha
- Text: The vessels employed were plastic flowerpots having a volume of 300 cm^3; the substrate was a sandy loam containing about 1.5% humus. The seeds of the test plants (see Table 1) were sown shallow, and separated according to species. In the case of Cyperus esculentus, pregerminated tubers were planted. […] This cover ensured uniform germination of the test plants (to the extent that this was not impaired by the chemicals), and prevented readily volatile substances from evaporating. […]
readout name: % damage (%)
Just the number please, in %, no unit attached.

Example entries and their recorded answers appear below.
structure as smiles | readout units | % damage
CCc1cccc(CC)c1N(Cn1nc(C)c(Cl)c1C)C(=O)CCl | % | 70
Cc1cccc(N(Cn2cncn2)C(=O)CCl)c1C | % | 70
Cc1cc(C)n(CN(C(=O)CCl)c2c(C(C)C)cccc2C(C)C)n1 | % | 80
Cc1ccc(C)c(N(Cn2nc(C)cc2C)C(=O)CCl)c1 | % | 60
Cc1cc(C)c(N(Cn2cccn2)C(=O)CCl)c(C)c1 | % | 80

Sample Cc1ccn(CN(C(=O)CCl)c2ccccc2C(C)C)n1 ; % damage observed: 100

Sample CCc1cccc(CC)c1N(Cn1nc(C)nc1C)C(=O)CCl ; % damage observed: 95

Sample Cc1ccccc1N(Cn1nccc1C)C(=O)CCl ; % damage observed: 90

Sample Cc1ccc(Cl)cc1N(Cn1cccn1)C(=O)CCl ; % damage observed: 100

Sample Cc1cccc(C(C)C)c1N(Cn1cncn1)C(=O)CCl ; % damage observed: 70

Sample Cc1ccccc1N(Cn1nc(C)c(C)c1C)C(=O)CCl ; % damage observed: 50

----------
Measured % damage, listed per entry.
- System: Setaria spp.
- experiment: preemergence treatment in the greenhouse, % damage
- Format: in vivo
- experimental parameters: 1.0 kg/ha
Just the number please, in %, no unit attached.

Example entries and their recorded answers appear below.
compound | target of assay | readout name | readout units | recorded value
CCc1cccc(C)c1N(Cn1cc(OC)cn1)C(=O)CCl | Setaria spp. | % damage | % | 100
Cc1ccc(C)c(N(Cn2cncn2)C(=O)CCl)c1C [Compound 136] | Setaria spp. | % damage | % | 100
CCc1cccc(CC)c1N(Cn1cncn1)C(=O)CCl [Compound 130] | Setaria spp. | % damage | % | 95

The record that follows has no % damage shown yet.
Item: Cc1cccc(C)c1N(Cn1nc(C)c(Cl)c1C)C(=O)CCl [Compound 106] | System: Setaria spp. | % damage: 90

----------
Measured % damage, listed per entry.
- System: Cyp. diff.
- experiment: preemergence treatment in the greenhouse, % damage
- Type: in vivo
- experimental parameters: 2.0 kg/ha

Example entries and their recorded answers appear below.
structure as smiles | recorded value
CCc1cccc(CC)c1N(Cn1nc(C)c(Cl)c1C)C(=O)CCl | 100%
Cc1cccc(C(C)C)c1N(Cn1cncn1)C(=O)CCl | 100%
Cc1cc(C)c(N(Cn2cccn2)C(=O)CCl)c(C)c1 | 90%

Sample CC(C)c1ccccc1N(Cn1cccn1)C(=O)CCl ; % damage observed: 90%

----------
- System: Alopec. myosur.
- experiment: preemergence treatment in the greenhouse, % damage
- Format: in vivo
- experimental parameters: 2.0 kg/ha
Measured % damage, listed per entry.
Just the number please, in %, no unit attached.

Example entries and their recorded answers appear below.
molecule | target of assay | % damage (%)
Cc1cccc(C(C)C)c1N(Cn1cccn1)C(=O)CCl [Compound 9] | Alopec. myosur. | 100
Cc1cccc(N(Cn2cccn2)C(=O)CCl)c1C [Compound 17] | Alopec. myosur. | 50
Cc1cccc(C)c1N(Cn1nc(C)c(Cl)c1C)C(=O)CCl [Compound 106] | Alopec. myosur. | 100
Cc1ccccc1N(Cn1cccn1)C(=O)CCl | Alopec. myosur. | 90

Item: CC(C)c1ccccc1N(Cn1cccn1)C(=O)CCl [Compound 4] | System: Alopec. myosur. | % damage: 95

Item: CC(C)c1cccc(C(C)C)c1N(Cn1cccn1)C(=O)CCl [Compound 11] | System: Alopec. myosur. | % damage: 90

Item: CCc1cccc(CC)c1N(Cn1cc(OC)cn1)C(=O)CCl | System: Alopec. myosur. | % damage: 99

Item: Cc1cccc(C)c1N(Cn1cc(Cl)cn1)C(=O)CCl | System: Alopec. myosur. | % damage: 100

Item: Cc1cccc(C)c1N(Cn1ncnn1)C(=O)CCl | System: Alopec. myosur. | % damage: 98

Item: CCc1cccc(C)c1N(Cn1nc(C)c(Cl)c1C)C(=O)CCl [Compound 107] | System: Alopec. myosur. | % damage: 95

----------
- Test system: Setaria spp.
- experiment: preemergence treatment in the greenhouse, % damage
- Format: in vivo
- experimental parameters: 1.0 kg/ha
readout name: % damage (%)
Just the number please, in %, no unit attached.

structure as smiles | % damage, %
Cc1ncn(CN(C(=O)CCl)c2c(C)cccc2C)n1 | 100

Sample CCc1cccc(C)c1N(Cn1cncn1)C(=O)CCl ; % damage observed: 95

Sample CCc1ccccc1N(Cn1nc(C)cc1C)C(=O)CCl ; % damage observed: 95

Sample Cc1cc(C)c(N(Cn2nc(C)cc2C)C(=O)CCl)c(C)c1 ; % damage observed: 100

----------
- Test system: Setaria spp.
- experiment: preemergence treatment in the greenhouse, % damage
- Type: in vivo
- experimental parameters: 1.0 kg/ha
readout name: % damage (%)
Just the number please, in %, no unit attached.

structure as smiles | target of assay | readout units | % damage
Cc1cc(C)n(CN(C(=O)CCl)c2c(C)ccc(C)c2C)n1 | Setaria spp. | % | 100
Cc1cc(C)n(CN(C(=O)CCl)c2ccccc2)n1 | Setaria spp. | % | 80
Cc1cc(C)n(CN(C(=O)CCl)c2ccccc2C)n1 | Setaria spp. | % | 60

Sample Cc1cc(C)n(CN(C(=O)CCl)c2cccc(C)c2C)n1 ; % damage observed: 100

Sample Cc1cnn(CN(C(=O)CCl)c2c(C)cccc2C)c1 ; % damage observed: 100
